- TARGET_ENTITY: WT CFTR (Homo sapiens, UniProt P13569)
- Construct: GFP (PreScission Protease-cleavable) (C, cleaved yes)
- Sequence (P13569 whole entry): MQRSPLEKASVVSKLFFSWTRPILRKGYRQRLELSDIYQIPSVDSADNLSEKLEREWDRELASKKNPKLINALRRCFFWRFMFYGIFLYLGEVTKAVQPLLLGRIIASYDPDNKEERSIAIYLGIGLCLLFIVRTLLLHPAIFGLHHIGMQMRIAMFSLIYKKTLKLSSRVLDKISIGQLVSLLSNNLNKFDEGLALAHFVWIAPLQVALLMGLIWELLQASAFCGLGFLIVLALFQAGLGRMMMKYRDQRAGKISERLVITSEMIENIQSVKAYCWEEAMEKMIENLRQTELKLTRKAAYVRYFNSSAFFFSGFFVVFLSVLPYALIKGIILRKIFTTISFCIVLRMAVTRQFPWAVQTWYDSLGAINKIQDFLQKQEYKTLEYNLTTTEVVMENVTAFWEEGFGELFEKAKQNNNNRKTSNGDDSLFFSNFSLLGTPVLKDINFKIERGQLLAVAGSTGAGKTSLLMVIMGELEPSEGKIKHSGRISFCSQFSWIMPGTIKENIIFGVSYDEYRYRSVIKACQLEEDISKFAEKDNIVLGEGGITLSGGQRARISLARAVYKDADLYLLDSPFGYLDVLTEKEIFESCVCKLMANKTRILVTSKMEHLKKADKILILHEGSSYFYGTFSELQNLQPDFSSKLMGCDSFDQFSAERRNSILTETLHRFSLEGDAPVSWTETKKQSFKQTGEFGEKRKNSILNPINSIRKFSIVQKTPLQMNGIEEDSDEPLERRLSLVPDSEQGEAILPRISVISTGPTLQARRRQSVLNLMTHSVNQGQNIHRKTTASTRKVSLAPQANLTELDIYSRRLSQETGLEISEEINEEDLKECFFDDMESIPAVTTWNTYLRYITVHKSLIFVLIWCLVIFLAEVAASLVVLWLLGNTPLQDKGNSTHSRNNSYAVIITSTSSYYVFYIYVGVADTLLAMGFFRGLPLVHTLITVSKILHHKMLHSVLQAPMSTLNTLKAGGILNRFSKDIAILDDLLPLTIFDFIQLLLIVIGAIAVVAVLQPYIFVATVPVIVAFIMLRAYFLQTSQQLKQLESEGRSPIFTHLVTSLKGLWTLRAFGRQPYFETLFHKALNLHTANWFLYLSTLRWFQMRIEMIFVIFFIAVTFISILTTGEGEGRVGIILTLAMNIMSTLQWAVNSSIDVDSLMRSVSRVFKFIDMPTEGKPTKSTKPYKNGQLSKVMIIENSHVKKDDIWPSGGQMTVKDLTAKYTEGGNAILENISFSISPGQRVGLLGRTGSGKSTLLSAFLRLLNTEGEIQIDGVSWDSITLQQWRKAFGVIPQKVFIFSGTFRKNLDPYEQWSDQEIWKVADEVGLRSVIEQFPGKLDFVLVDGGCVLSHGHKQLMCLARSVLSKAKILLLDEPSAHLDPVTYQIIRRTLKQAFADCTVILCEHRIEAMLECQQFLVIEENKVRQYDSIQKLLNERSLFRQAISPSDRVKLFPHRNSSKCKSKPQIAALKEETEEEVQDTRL
- EXPERIMENT_SUMMARY: Inside-out excised patch macroscopic current recording, WT CFTR
- CONDITION_INFO: WT CFTR; inside-out patches; 3 mM ATP; Hill coefficient fixed to 1
PROPERTY_LABEL: pIC50
In simple prose, pIC50 is minus the logarithm base ten of a concentration in moles per litre.

Reported pIC50 (WT CFTR (Homo sapiens, UniProt P13569)) for entry O=C(O)c1ccc(/C=C2\SC(=S)N(c3cccc(C(F)(F)F)c3)C2=O)cc1 is 6.22
